Kindly state logP for each of the entries shown.
# experimentNotes: Lipophilicity, log P of the compound
# Type: physicochemical
# conditionLabel: octanol/water
Answer with a number only.

Entry CC(=O)N[C@@H](Cc1cc(F)cc(F)c1)[C@H](O)CNC1(c2cccc(C3CCOC3)c2)CCCCC1 (stereo partly drawn) , logP reported as 4

Entry CC(=O)N[C@@H](Cc1cc(F)cc(F)c1)[C@H](O)CNC1(c2cccc(C3CCCO3)c2)CCCCC1 (stereo partly drawn) , logP reported as 4

Entry "CC(=O)N[C@@H](Cc1cc(F)cc(F)c1)[C@H](O)CNC1(c2cccc(C(C)(C)C)c2)CCCCC1" , logP reported as 4.8
